# Tested on: SB.msgc-1
# assay-protocol: viability at highest tested concentration (MAXR) relative to DMSO; higher = less cytotoxic
# conditions: SB.msgc-1 (sporadic gastric cancer)
Where a name gives a salt, the structure may show the parent alone.
viability values by entry
API: value field is a number in %; no unit string.

// known answers, use as guide
molecule	numeric-value
O=C(O)C(=O)c1cn(Cc2ccccc2)c2ccc(-c3ccc(OC(F)(F)F)cc3)cc12 [Tiplasinin] (top concentration 46.0829 µM)	72.1
COc1ccc([S+](=O)([O-])N(C(C)=O)c2ccccc2/C=C/c2cc[n+]([O-])cc2)cc1 [IVX-214] (top concentration 46.0829 µM)	46.4
CC(=O)C1=C(O)C2(C)C(=CC1=O)Oc1c(C(C)=O)c(O)c(C)c(O)c12 (single isomer, unassigned; (+)) [(+)-Usniacin] (top concentration 46.0829 µM)	113

Q. Recorded viability of Cc1ncc([N+](=O)[O-])n1CCO [Metronidazole] (top concentration 46.0829 µM) , please.
A. 115

Q. Recorded viability of CCc1ccc(CCOc2ccc(CC3SC(=O)NC3=O)cc2)nc1 (centres undefined) [Pioglitazone HCl] (top concentration 46.0829 µM) , please.
A. 91.4

Q. Recorded viability of CO[C@@H](C(=O)N1Cc2[nH]nc(NC(=O)c3ccc(N4CCN(C)CC4)cc3)c2C1)c1ccccc1 [Danusertib] (top concentration 46.0829 µM) , please.
A. 26.3

Q. Recorded viability of Cc1ccc(/C=N/NC(=O)c2ccccc2Oc2ccccc2)o1 (top concentration 46.0829 µM) , please.
A. 71.4

Q. Recorded viability of O.O.CCN1CCN(C(=O)N[C@H](C(=O)N[C@H]2[C@@H]3SC\C(=C(/N3C2=O)C(O)=O)CSC4=NN=N[N]4C)C5=CC=C(O)C=C5)C(=O)C1=O [Cefoperazone sodium] (top concentration 13.52 µM) , please.
A. 119

Q. Recorded viability of CCC(=O)N[C@H]1CC[C@H](C(=O)N(C)c2ccc(-c3nc4ccccc4o3)cc2)C1 [FASN BI] (top concentration 46.0829 µM) , please.
A. 27.6

This collection of values is drawn from the supplement of paper PMC5412046.
